Entries and their fold change (FC) values follow.
test system: Human immunodeficiency virus 1; assay: Antiviral activity against HIV1 isolate 060 harboring reverse transcriptase M41L/D67N/K70R/L210W/T215Y/K219E mutant gene by phenosense assay relative to wild type; format: functional
Endpoint name: fold change (FC)

1. Cc1cn([C@H]2C=C[C@@H](CO)O2)c(=O)[nH]c1=O    3.1
2. Cc1cn([C@H]2C[C@H](N=[N+]=[N-])[C@@H](CO)O2)c(=O)[nH]c1=O    400
3. C[C@H](Cn1cnc2c(N)ncnc21)OCP(=O)(O)O [TENOFOVIR ANHYDROUS]    4
4. Nc1nc(NC2CC2)c2ncn([C@H]3C=C[C@@H](CO)C3)c2n1    4.7
5. CCCCCCCCCCCCCCCCOCCCOP(=O)(O)CO[C@H](C)Cn1cnc2c(N)ncnc21    3.3

###

system: Human immunodeficiency virus 1; assay: Antiviral activity against HIV1 isolate 070 harboring reverse transcriptase 65R/S68G mutant gene by phenosense assay relative to wild type; format: functional
Response key: YES means fold change (FC) >= 2; NO means fold change (FC) < 2.

1) Nc1nc(=O)n([C@@H]2CS[C@H](CO)O2)cc1F    YES
2) Cc1cn([C@H]2C[C@H](N=[N+]=[N-])[C@@H](CO)O2)c(=O)[nH]c1=O    NO
3) Cc1cn([C@H]2C=C[C@@H](CO)O2)c(=O)[nH]c1=O    NO
4) CCCCCCCCCCCCCCCCOCCCOP(=O)(O)CO[C@H](C)Cn1cnc2c(N)ncnc21    NO
5) C[C@H](Cn1cnc2c(N)ncnc21)OCP(=O)(O)O [TENOFOVIR ANHYDROUS]    NO
6) O=c1[nH]cnc2c1ncn2[C@H]1CC[C@@H](CO)O1    NO
7) Nc1ccn([C@@H]2CS[C@H](CO)O2)c(=O)n1    YES
8) Nc1nc(NC2CC2)c2ncn([C@H]3C=C[C@@H](CO)C3)c2n1    YES

###

tested on: Human immunodeficiency virus 1; assay: Antiviral activity against HIV1 subtype C isolate 91IN101 infected in human PBMC after 48 to 72 hrs by MTS assay; assay type: functional, organism-based; details: Human immunodeficiency virus 1, isolate 93IN101; in the assay text read “93IN101” for “91IN101”
Endpoint name: EC50 (nM)

1) CCCCCCCCCCCCCCCCOCCCOP(=O)(O)CO[C@H](C)Cn1cnc2c(N)ncnc21 [TENOFOVIR EXALIDEX]    2.8

###

tested on: Human immunodeficiency virus 1; assay: Antiviral activity against HIV1 isolate 211 harboring reverse transcriptase D67N/K70R/T215F/K219E/M184V mutant gene by phenosense assay relative to wild type; type: functional
Entries and their fold change (FC) values follow.
Endpoint name: fold change (FC)

1. C[C@H](Cn1cnc2c(N)ncnc21)OCP(=O)(O)O [TENOFOVIR ANHYDROUS]    0.91
2. CCCCCCCCCCCCCCCCOCCCOP(=O)(O)CO[C@H](C)Cn1cnc2c(N)ncnc21    1
3. Nc1nc(NC2CC2)c2ncn([C@H]3C=C[C@@H](CO)C3)c2n1    4.4

###

test system: Human immunodeficiency virus 1; assay: Antiviral activity against HIV1 isolate 153 harboring reverse transcriptase L74V mutant gene by phenosense assay; format: functional, organism-based; settings: Human immunodeficiency virus 1, isolate 153
pEC50: −log10 of the molar value.
Entries and their pEC50 values follow.
Endpoint name: pEC50

1. Nc1nc(NC2CC2)c2ncn([C@H]3C=C[C@@H](CO)C3)c2n1 [ABACAVIR]    5.47
2. O=c1[nH]cnc2c1ncn2[C@H]1CC[C@@H](CO)O1 [DIDANOSINE]    5.05
3. C[C@H](Cn1cnc2c(N)ncnc21)OCP(=O)(O)O [TENOFOVIR ANHYDROUS]    6.32
4. Nc1nc(=O)n([C@@H]2CS[C@H](CO)O2)cc1F [EMTRICITABINE]    5.68
